Reference source for all entries: ChEMBL document CHEMBL3046126

Please respond with reported Phytotoxicity for every item in the list.
Tested on: Oryza sativa
runDescription: Pre-emergence phytotoxicity against Oryza sativa cv. Koshihikari (rice) assessed as phytotoxic crop injury visual ratings at 25 g ai/ha measured after 14 days post treatment under flooded conditions
Type: organism-based
experimentalSetup: in vivo, other, 336 h
Give bare numbers, in %.

| compound | experimentalResult |
| --- | --- |
| CCC(CC)Oc1cc(N2C(=O)OC(=C(C)C)C2=O)c(F)cc1Cl | 0 |
| COc1cc(N2C(=O)OC(=C(C)C)C2=O)c(F)cc1Cl | 0 |

Proceeding to the next compound to report its Phytotoxicity.
Prompt line: Which measured Phytotoxicity value corresponds to CCC(C)Oc1cc(N2C(=O)OC(=C(C)C)C2=O)c(F)cc1Cl (stereo not drawn) ?
Response line: 10
